The reported numbers originate from patent US11339150B2.

Assay: Pharmacokinetic evaluation in male CD1 mice
Conditions: mouse, in vivo, po, 10 mg/kg (p.o.)
RESULT TYPE: Cmax (ng/mL)
Use ng/mL as the unit, but write only the number.

Bench note: what Cmax did FC(F)c1nnc(-c2cnc(Nc3cc(-c4ccccc4)c4nc[nH]c4c3)nc2)o1 show?
1450

* * *

Target: HDAC6 (Homo sapiens)
Sequence (Q9UBN7 whole entry): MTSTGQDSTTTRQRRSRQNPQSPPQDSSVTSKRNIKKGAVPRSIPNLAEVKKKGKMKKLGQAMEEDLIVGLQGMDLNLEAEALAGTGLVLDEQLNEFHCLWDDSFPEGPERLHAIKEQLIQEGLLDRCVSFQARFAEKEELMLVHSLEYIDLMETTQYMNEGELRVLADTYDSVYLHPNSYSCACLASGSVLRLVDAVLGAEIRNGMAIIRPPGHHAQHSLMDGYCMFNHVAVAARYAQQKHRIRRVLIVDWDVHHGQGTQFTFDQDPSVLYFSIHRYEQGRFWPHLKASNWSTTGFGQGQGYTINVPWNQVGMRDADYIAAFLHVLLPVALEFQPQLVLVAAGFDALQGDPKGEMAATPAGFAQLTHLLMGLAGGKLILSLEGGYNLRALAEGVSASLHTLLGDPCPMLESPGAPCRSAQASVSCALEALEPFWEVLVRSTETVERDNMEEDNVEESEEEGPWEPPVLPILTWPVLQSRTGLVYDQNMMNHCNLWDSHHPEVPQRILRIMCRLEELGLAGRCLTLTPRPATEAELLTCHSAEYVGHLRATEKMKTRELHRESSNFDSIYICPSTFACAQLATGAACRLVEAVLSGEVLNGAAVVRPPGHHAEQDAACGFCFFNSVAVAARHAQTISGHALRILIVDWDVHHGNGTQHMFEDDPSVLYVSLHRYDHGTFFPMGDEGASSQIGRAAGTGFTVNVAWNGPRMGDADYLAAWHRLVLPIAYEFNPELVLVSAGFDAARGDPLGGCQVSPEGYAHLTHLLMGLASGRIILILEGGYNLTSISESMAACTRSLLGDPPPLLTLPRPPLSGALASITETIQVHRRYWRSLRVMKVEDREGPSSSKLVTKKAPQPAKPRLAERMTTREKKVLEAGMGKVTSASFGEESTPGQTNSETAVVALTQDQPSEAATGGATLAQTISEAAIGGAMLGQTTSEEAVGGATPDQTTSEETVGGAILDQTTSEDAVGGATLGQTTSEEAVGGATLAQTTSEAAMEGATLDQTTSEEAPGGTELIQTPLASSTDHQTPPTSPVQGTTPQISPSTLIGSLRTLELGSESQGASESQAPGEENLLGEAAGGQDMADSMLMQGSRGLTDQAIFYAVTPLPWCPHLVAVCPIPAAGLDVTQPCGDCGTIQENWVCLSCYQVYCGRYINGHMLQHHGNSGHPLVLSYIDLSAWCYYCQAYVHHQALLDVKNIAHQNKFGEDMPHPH
Assay: HDAC assay (fluorogenic substrate), HDAC6
Assay type: biochemical
inhibition at 10 µM values, listed per item

Example cases with answers are listed next.
[[record]]
structure = "OCCn1cnc2c(-c3ccc(F)cc3F)cc(Nc3ncc(-c4nnc(C(F)F)o4)cn3)cc21"
target_or_system = "HDAC6 (Homo sapiens)"
result_type = "inhibition at 10 µM"
result = "> 90%"

[[record]]
structure = "Cc1nc2c(-c3ccccc3)cc(Nc3ncc(-c4nnc(C(F)F)o4)cn3)cc2n1CCO"
target_or_system = "HDAC6 (Homo sapiens)"
result_type = "inhibition at 10 µM"
result = "> 90%"

[[record]]
structure = "Cn1nccc1-c1cc(Nc2ncc(-c3nnc(C(F)F)o3)cn2)cc2[nH]cnc12"
target_or_system = "HDAC6 (Homo sapiens)"
result_type = "inhibition at 10 µM"
result = "> 90%"

[[record]]
structure = "CC(C)(C)c1cc(Nc2ncc(-c3nnc(C(F)F)o3)cn2)cc2c1ncn2CCO"
target_or_system = "HDAC6 (Homo sapiens)"
result_type = "inhibition at 10 µM"
result = "> 90%"


Next up:
Bench note: what inhibition at 10 µM did CN(C)c1nc2c(-c3ccccc3)cc(Nc3ncc(-c4nnc(C(F)F)o4)cn3)cc2[nH]1 show?
> 80%
